Biological target: 5-hydroxytryptamine receptor 2B (Homo sapiens, UniProt P41595); also: assay procedure not described here
Sequence (P41595 whole entry): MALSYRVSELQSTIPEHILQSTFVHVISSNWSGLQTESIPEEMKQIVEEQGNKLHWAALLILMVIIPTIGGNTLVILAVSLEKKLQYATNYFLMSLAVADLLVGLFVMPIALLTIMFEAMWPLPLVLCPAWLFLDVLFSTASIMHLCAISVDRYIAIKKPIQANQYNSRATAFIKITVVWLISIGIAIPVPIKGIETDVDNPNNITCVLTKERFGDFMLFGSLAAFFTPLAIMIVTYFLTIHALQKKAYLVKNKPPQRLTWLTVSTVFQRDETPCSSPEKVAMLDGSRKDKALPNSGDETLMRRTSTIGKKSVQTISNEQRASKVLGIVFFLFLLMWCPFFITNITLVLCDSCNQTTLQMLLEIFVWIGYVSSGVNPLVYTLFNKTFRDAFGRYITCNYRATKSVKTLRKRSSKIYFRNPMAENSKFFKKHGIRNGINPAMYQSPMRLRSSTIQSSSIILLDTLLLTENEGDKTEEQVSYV
Assay type: functional, cell-based

COMPOUND	TGT	AC50
CC1(C)C(C=C(Cl)Cl)C1C(=O)OCc1cccc(Oc2ccccc2)c1 (centres undefined)	5-hydroxytryptamine receptor 2B (Homo sapiens, UniProt P41595)	> 10 µM
COc1cccc(N(C)C(=S)Oc2ccc3c(c2)CCCC3)n1 [LIRANAFTATE]	5-hydroxytryptamine receptor 2B (Homo sapiens, UniProt P41595)	> 30 µM
COCCOC(=O)C1=C(C)NC(C)=C(C(=O)OC/C=C/c2ccccc2)C1c1cccc([N+](=O)[O-])c1 (centres undefined)	5-hydroxytryptamine receptor 2B (Homo sapiens, UniProt P41595)	> 30 µM
CCCNC(C)C(=O)Nc1ccccc1C (centres undefined)	5-hydroxytryptamine receptor 2B (Homo sapiens, UniProt P41595)	> 30 µM
[H]/N=C(/N)N[C@H]1[C@H](O)[C@@H](O)[C@H](O[C@@H]2O[C@@H](C)[C@](O)(C=O)[C@H]2O[C@@H]2O[C@@H](CO)[C@H](O)[C@@H](O)[C@@H]2NC)[C@@H](N/C(N)=N\[H])[C@@H]1O	5-hydroxytryptamine receptor 2B (Homo sapiens, UniProt P41595)	> 30 µM
CCCCCCOC(=O)CCC(=O)CN [HEXAMINOLEVULINATE]	5-hydroxytryptamine receptor 2B (Homo sapiens, UniProt P41595)	> 30 µM
Clc1ccc(C(Cn2ccnc2)OCc2ccc(Sc3ccccc3)cc2)c(Cl)c1 (centres undefined)	5-hydroxytryptamine receptor 2B (Homo sapiens, UniProt P41595)	> 30 µM
O=C(CCCN1CCC(n2c(O)nc3ccccc32)CC1)c1ccc(F)cc1	5-hydroxytryptamine receptor 2B (Homo sapiens, UniProt P41595)	> 30 µM
CCCC(C)(COC(N)=O)COC(=O)NC(C)C (centres undefined)	5-hydroxytryptamine receptor 2B (Homo sapiens, UniProt P41595)	> 10 µM
C=CC(N)CCC(=O)O (centres undefined)	5-hydroxytryptamine receptor 2B (Homo sapiens, UniProt P41595)	> 10 µM
COc1ccc(/C=C/C(=O)Nc2ccccc2C(=O)O)cc1OC	5-hydroxytryptamine receptor 2B (Homo sapiens, UniProt P41595)	> 30 µM
CC(C)C[C@H](CN)CC(=O)O	5-hydroxytryptamine receptor 2B (Homo sapiens, UniProt P41595)	28 µM
CNCCCC1c2ccccc2C=Cc2ccccc21	5-hydroxytryptamine receptor 2B (Homo sapiens, UniProt P41595)	> 10 µM
CC1(C)S[C@@H]2[C@H](NC(=O)[C@H](N)c3ccc(O)cc3)C(=O)N2[C@H]1C(=O)O	5-hydroxytryptamine receptor 2B (Homo sapiens, UniProt P41595)	> 30 µM
CN1CCN(CCCN2c3ccccc3Sc3ccc(S(=O)(=O)N(C)C)cc32)CC1	5-hydroxytryptamine receptor 2B (Homo sapiens, UniProt P41595)	> 30 µM
C#Cc1cccc(Nc2ncnc3cc(OCCOC)c(OCCOC)cc23)c1	5-hydroxytryptamine receptor 2B (Homo sapiens, UniProt P41595)	> 30 µM
CC(=O)O[C@H]1C[C@@H]2CC[C@@H]3[C@H](CC[C@@]4(C)[C@H]3C[C@H]([N+]3(C)CCCCC3)[C@@H]4OC(C)=O)[C@@]2(C)C[C@@H]1[N+]1(C)CCCCC1	5-hydroxytryptamine receptor 2B (Homo sapiens, UniProt P41595)	> 10 µM
C=C(C)[C@@H]1CCC(C)=C[C@H]1c1c(O)cc(CCCCC)cc1O	5-hydroxytryptamine receptor 2B (Homo sapiens, UniProt P41595)	> 30 µM
COc1cc(OC)c(C(=O)CCCN2CCCC2)c(OC)c1	5-hydroxytryptamine receptor 2B (Homo sapiens, UniProt P41595)	> 30 µM
CC(=O)c1ccc2c(c1)N(CCCN1CCC(CCO)CC1)c1ccccc1S2	5-hydroxytryptamine receptor 2B (Homo sapiens, UniProt P41595)	> 30 µM
COC(=O)[C@H](c1ccccc1Cl)N1CCc2sccc2C1	5-hydroxytryptamine receptor 2B (Homo sapiens, UniProt P41595)	> 30 µM
CCC(C)(Oc1ccc(C2(c3ccc(OC(C)(CC)C(=O)O)cc3)CCCCC2)cc1)C(=O)O (centres undefined) [CLINOFIBRATE]	5-hydroxytryptamine receptor 2B (Homo sapiens, UniProt P41595)	> 30 µM
N#Cc1ccccc1-c1cc(-c2ccccn2)cn(-c2ccccc2)c1=O	5-hydroxytryptamine receptor 2B (Homo sapiens, UniProt P41595)	> 30 µM
CCc1oc2ccccc2c1C(=O)c1cc(Br)c(O)c(Br)c1	5-hydroxytryptamine receptor 2B (Homo sapiens, UniProt P41595)	> 30 µM
CC(=O)OCC(CCn1cnc2cnc(N)nc21)COC(C)=O	5-hydroxytryptamine receptor 2B (Homo sapiens, UniProt P41595)	> 10 µM
CNCC[C@H](Oc1cccc2ccccc12)c1cccs1	5-hydroxytryptamine receptor 2B (Homo sapiens, UniProt P41595)	> 10 µM
CC(=N)N1CC[C@H](SC2=C(C(=O)O)N3C(=O)[C@H]([C@@H](C)O)[C@H]3C2)C1	5-hydroxytryptamine receptor 2B (Homo sapiens, UniProt P41595)	> 300 µM
CCN(CC)CCOC(=O)c1ccc(N)cc1Cl	5-hydroxytryptamine receptor 2B (Homo sapiens, UniProt P41595)	> 30 µM
N[C@H](Cc1cc(I)c(Oc2cc(I)c(O)c(I)c2)c(I)c1)C(=O)O	5-hydroxytryptamine receptor 2B (Homo sapiens, UniProt P41595)	> 10 µM
CCC(=O)OCC(=O)[C@@]1(OC(=O)CC)[C@@H](C)C[C@H]2[C@@H]3CCC4=CC(=O)C=C[C@]4(C)[C@@]3(F)[C@@H](O)C[C@@]21C [BETAMETHASONE DIPROPIONATE]	5-hydroxytryptamine receptor 2B (Homo sapiens, UniProt P41595)	> 30 µM
CN1C[C@H](C(=O)N[C@]2(C)O[C@@]3(O)[C@@H]4CCCN4C(=O)[C@H](Cc4ccccc4)N3C2=O)C[C@@H]2c3cccc4[nH]cc(c34)C[C@H]21 [DIHYDROERGOTAMINE]	5-hydroxytryptamine receptor 2B (Homo sapiens, UniProt P41595)	2.77 µM
Cc1ccc(NC(=O)C2(c3ccc4c(c3)OC(F)(F)O4)CC2)nc1-c1cccc(C(=O)O)c1	5-hydroxytryptamine receptor 2B (Homo sapiens, UniProt P41595)	> 30 µM
Clc1ccc2c(c1)C(c1ccccc1)=NCc1nncn1-2	5-hydroxytryptamine receptor 2B (Homo sapiens, UniProt P41595)	> 10 µM
CN(c1nccc(=O)[nH]1)C1CCN(c2nc3ccccc3n2Cc2ccc(F)cc2)CC1	5-hydroxytryptamine receptor 2B (Homo sapiens, UniProt P41595)	> 30 µM

Cited source for all entries: ChEMBL document CHEMBL5291721
